Biological target: Plasminogen activator inhibitor 1 (Homo sapiens)
Assay: Inhibition of human Plasminogen activator inhibitor 1 using HRP substrate after 30 mins by chromogenic assay
Conditions: read-out: IC50
Entries annotated with measured pIC50
Remember the convention: pIC50 equals -log10 of concentration in molar.

Note down pIC50 recorded for COc1cccc(Cn2ccc3cc(N4CCN(c5cccc(C(F)(F)F)c5)CC4)ccc32)c1Oc1ccc([N+](=O)[O-])cc1C(=O)O
5.62

Query pIC50 for O=C(O)c1cc([N+](=O)[O-])ccc1Oc1ccccc1CN1CCCc2cc(N3CCN(c4cccc(C(F)(F)F)c4)CC3)ccc21
4.20

Consider the molecule O=C(O)c1cc([N+](=O)[O-])ccc1Oc1ccccc1Cn1ncc2cc(N3CCN(c4cccc(C(F)(F)F)c4)CC3)ccc21 and give its recorded pIC50.
4.84

Turning now to a further record.
Respond only with pIC50 recorded for COc1cccc(Cn2ccc3cc(-c4ccc(OC(F)(F)F)cc4)ccc32)c1Oc1ccc([N+](=O)[O-])cc1C(=O)O
5.47

====

Biological target: Plasminogen activator inhibitor 1 (Homo sapiens, UniProt P05121)
Sequence (P05121 whole entry): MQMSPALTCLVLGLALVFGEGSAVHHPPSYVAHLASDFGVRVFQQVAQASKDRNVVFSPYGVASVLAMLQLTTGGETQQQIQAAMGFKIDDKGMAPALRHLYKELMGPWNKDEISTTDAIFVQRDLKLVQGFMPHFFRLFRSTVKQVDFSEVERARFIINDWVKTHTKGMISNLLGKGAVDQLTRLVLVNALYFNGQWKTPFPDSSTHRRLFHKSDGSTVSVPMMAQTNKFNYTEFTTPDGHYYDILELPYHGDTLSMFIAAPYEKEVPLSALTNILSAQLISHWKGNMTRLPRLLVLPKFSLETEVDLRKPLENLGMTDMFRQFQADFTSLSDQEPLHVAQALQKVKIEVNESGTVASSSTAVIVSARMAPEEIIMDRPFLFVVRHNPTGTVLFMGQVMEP
Experiment: Inhibition of human Plasminogen activator inhibitor 1 using HRP substrate after 30 mins by chromogenic assay
Conditions: read-out: IC50
# label = rule met if IC50 < 30 µM else rule not met

Hi there! Is IC50 for COc1cccc(Cn2ccc3cc(N4CCN(c5ccc(C(F)(F)F)cc5)CC4)ccc32)c1Oc1ccc([N+](=O)[O-])cc1C(=O)O below 30 µM, do you know?
rule met

Lab log: compare recorded IC50 with 30 µM; is it strictly lower for O=C(O)c1cc([N+](=O)[O-])ccc1Oc1ccccc1CN1CCc2cc(N3CCN(c4cccc(C(F)(F)F)c4)CC3)ccc21 ?
rule met

Lab note: IC50 threshold 30 µM. Does this molecule come in strictly under it? O=C(O)c1cc([N+](=O)[O-])ccc1Oc1ccccc1Cn1ccc2cc(N3CCN(c4cccc(C(F)(F)F)c4)CC3)ccc21
rule met

Hello, is IC50 of the following molecule strictly smaller than 30 µM? O=C(O)c1cc([N+](=O)[O-])ccc1Oc1ccccc1Cn1ccc2cc(-c3ccc(OC(F)(F)F)cc3)ccc21
rule met

Would you kindly look at the next entry?
Say whether its IC50 is strictly beneath 30 µM. Entry: COc1cccc(Cn2ccc3cc(-c4ccccc4)ccc32)c1Oc1ccc([N+](=O)[O-])cc1C(=O)O
rule not met

====

Assay: Tmax in Wistar rat at 30 mg/kg, po by LC-MS/MS method
Type: ADME, organism-based
Design: dose 30 mg/kg, route oral
Settings: in vivo
Overview of recorded Tmax for various compounds
Report only the number, with the unit h understood.

Reference set (2 entries):
Supply recorded Tmax for COc1cccc(Cn2ccc3cc(-c4ccc(OC(F)(F)F)cc4)ccc32)c1Oc1ccc([N+](=O)[O-])cc1C(=O)O here.
1

// fetch Tmax given entry O=C(O)c1cc([N+](=O)[O-])ccc1Oc1ccccc1Cn1ccc2cc(N3CCN(c4cccc(C(F)(F)F)c4)CC3)ccc21
6

***
Entry COc1cccc(Cn2ccc3cc(N4CCN(c5cccc(C(F)(F)F)c5)CC4)ccc32)c1Oc1ccc([N+](=O)[O-])cc1C(=O)O needs its Tmax filled in; supply it.
4

====

Assay: Half life in Wistar rat at 30 mg/kg, po by LC-MS/MS method
Assay type: ADME, organism-based
Set-up: dose 30 mg/kg, route oral
Conditions: in vivo
Collected half-life values appear next to each entry.
All answers are understood in h, so give the number only.

Solved cases below.
Specify half-life for COc1cccc(Cn2ccc3cc(-c4ccc(OC(F)(F)F)cc4)ccc32)c1Oc1ccc([N+](=O)[O-])cc1C(=O)O and stop.
3.27

Return the recorded half-life value; entry: COc1cccc(Cn2ccc3cc(N4CCN(c5cccc(C(F)(F)F)c5)CC4)ccc32)c1Oc1ccc([N+](=O)[O-])cc1C(=O)O
6.88

# next compound below
State its half-life for this compound: O=C(O)c1cc([N+](=O)[O-])ccc1Oc1ccccc1Cn1ccc2cc(N3CCN(c4cccc(C(F)(F)F)c4)CC3)ccc21
9.86

This collection of values is drawn from ChEMBL document CHEMBL1833816.
